Listed compounds paired with reported growth inhibition
# Test Details: NCI Yeast Anticancer Drug Screen. Data for the rad50 strain (AID 155);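 also: 0% = growth of vehicle-only cultures of the same strain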
# Settings: S. cerevisiae rad50 strain growth inhibition; at 50.0 µM; hits give high values
About 79,000 compounds went through this panel and 15% of them were active in at least one assay; those are over-represented in the sample as a whole.
Write the answer as a number in %, unit excluded.

Q. Give a short answer stating reported growth inhibition for `CCN(CC)CCn1c2ccccc2c(=O)c2c(O)ccc(O)c21` .
A. 14.8

Q. Give a short answer stating reported growth inhibition for `Cc1cc(=O)c(C#N)c(C)o1` .
A. 6.65

Q. Give a short answer stating reported growth inhibition for COc1ccc(NC(=O)CC(O)c2cccc(N)c2)cc1 (configuration not stated) .
A. 22.3

Q. Give a short answer stating reported growth inhibition for `COc1ccc2[nH]c(=O)cc(C)c2c1` .
A. -5.35

Q. Give a short answer stating reported growth inhibition for `C=CCNCc1cc(Cl)cc(Cl)c1O` .
A. -8.35
